protocolNotes: Cmax in rat at 5 mg/kg, iv measured for 1 to 24 hrs by LC-MS analysis
Format: ADME, organism-based
conditionDescription: in vivo, time 1-24 hrs
endpointLabel: Cmax (ng/mL)

>>> print(df.to_string())
                                 testsmiles  endpointlabel  resultvalue
0  CCc1ccccc1C(=O)c1cnc2cc(O)ccc2c1Oc1ccc(/C=C/C(=O)O)cc1           Cmax        10400

====

protocolNotes: AUC (0 to infinity) in rat at 20 mg/kg, po measured for 1 to 24 hrs by LC-MS analysis
Type: ADME, organism-based
conditionDescription: in vivo, time 1-24 hrs
endpointLabel: AUC(0-inf)

                                 testsmiles  endpointlabel  resultvalue
0  CCc1ccccc1C(=O)c1cnc2cc(O)ccc2c1Oc1ccc(/C=C/C(=O)O)cc1     AUC(0-inf)  649 ng·h/mL

The measurements presented in this section are drawn from ChEMBL document CHEMBL5584239.
